Listed below: pIC50 values for each entry.
Target: T1, human IL13 R130Q (human, UniProt P35225 35-146, biotinylated (sites not given))
T1 construct: Peprotech; also called IL13R13Q; R111Q
T1 sequence (P35225 35-146 limits assumed, stated change not applied): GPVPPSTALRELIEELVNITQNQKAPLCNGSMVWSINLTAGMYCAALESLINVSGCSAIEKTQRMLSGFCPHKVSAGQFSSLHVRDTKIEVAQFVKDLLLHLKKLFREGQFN
Assay: Luminex competition, 80 pM biotin-IL13 R130Q binding to IL13Ra2-Fc beads
pIC50: −log10 of the molar value.

Binder	pIC50
7D2 (designed binder, N-Cap-(AR)3-C-Cap) DLGKKLLEAARAGQDDEVRILMANGADVNAFDDFGSTPLHLAARSGHLEIVEVLLKHGADVNAHDMIGDTPLHLAAYHGHLEIVEVLLKYGADVNAKDTSGTTPLHLAADSGHLEIVEVLLKHGADVNAQDKFGKTAFDISIDNGNEDLAEILQKLN	11.08
5B9 (designed binder, N-Cap-(AR)3-C-Cap) DLGKKLLEAARAGQDDEVRILMANGADVNATDVFGSTPLHLAARHGHLEIVEVLLKHGADVNATDFIGDTPLHLAAYHGHLEIVEVLLKHGADVNAKNGETPLHLAAYHGHPDIVEVLLKHGADVNAQDKFGKTAFDISIDNGNEDLAEILQKLN	10.87
